Taken from patent US20230220062A1.

# target_or_system: T1, recombinant human IL-19 (human, UniProt Q9UHD0 25-177)
# T1 construct: also called human IL-19 recombinant protein; interleukin-19
# T1 sequence: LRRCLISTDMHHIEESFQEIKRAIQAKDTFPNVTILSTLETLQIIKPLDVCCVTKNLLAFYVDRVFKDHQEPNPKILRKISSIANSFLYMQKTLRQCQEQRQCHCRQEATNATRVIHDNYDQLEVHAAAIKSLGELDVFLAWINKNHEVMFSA
# assay_protocol: BLI (Octet Red96), antibody on AMQ biosensor, IL-19 in solution, 25 C, 1:1 fit
measurement_type: log10 of kon (log10 of the value in M⁻¹ s⁻¹)
The base-10 logarithm of kon, taken with kon in M⁻¹ s⁻¹, is what appears here.

### Prompt What value of log10 of kon has been reported for the following binder? rabbit derived IL-19 Ab 2 (R_2) (antibody, V domains shown) VH: QQLEESGGGLVQPEGSLTLTCTASGFSFSSSYWICWVRQAPGKGLEWLACIDTGVSGDTYYANWAKGRFTISKTSSTTVTLQMTSLTAADTATYFCARDIFGSAIDNSLWGPGTLVTVSS VL: DVVMTQTPASVEAAVGGTVTIKCQASESIGNALAWYQQKPGQPPKLLIYDASKLASGVPSRFKGSGSGTQFTLTISDLECADAATYYCQCHYHGSSYWDNSFGGGTEVVVK
### Response 5.63

### Prompt Please answer likewise for rabbit derived IL-19 Ab 1 (R_1) (antibody, V domains shown) VH: QQLEESGGGLVQPEGSLTLTCTASGFSFSSSYWICWVRQAPGKGLEWLACIDTGVSGDTYYANWAEGRFTISKTSSTTVTLQMTSLTAADTATYFCARDIFGSAIDNSLWGPGTLVTVSS VL: AIDMTQTPASVSEPVGGTVTIKCQASQSISSYLAWYQQKPGQPPKLLIYSASTLASGVPSRFRGSGSGREFTLTISDLECADAATYYCQCHYHGSSYWDNSFGGGTEVVVK
### Response 4.52

### Prompt What do you have for rabbit derived IL-19 Ab 39 (R_39) (antibody, V domains shown) VH: QEQLKESGGGLVQPGGSLKLSCKASGFDLSSYGVSWVRQAPGKGLEWIGYIDPVFGSTYYANWVNGRFTISSDNAQNTLYLQLNSLTAADTATYFCARGSGYVYYGYTYDLWGPGTLVTVSS VL: DIVMTQTPASVEAAVGGTVTIKCQASQSIYRYLSWYQQKPGQRPKLLIYGASNLASGVSSRFKGSGSGTEFTLTISDLECADAATYYCQSYYYSSSSGYGNVFGGGTEVVVKG ?
### Response 5.31

### Prompt Proceed to murine derived IL-19 Ab 1 (M_1) (antibody, mouse IgG1, kappa, V domains shown) VH: EVQLQQSGPVLVKPGASVKMSCKASGYKFTDYFVGWVKQSHGKSLEWIGYVDPENGYTRCNQKFKGKATLTVDKSSSTAYMELNSLTSEDSAVYYCARYDYDWAWFTNWGQGTLVTVSA VL: DIVMTQSPSSLAMSVGQKVTMSCKSSQSLLSSYNQKNYLAWYQQKPGQSPKLLVYFASTRPPGVPDRFIGSGSGSDFTLTISSVQAEDLADYFCQQHERLPITFGAGTKLELKR
### Response 6.04

### Prompt Input murine derived IL-19 Ab 5 (M_5) (antibody, mouse IgG1, kappa, V domains shown) VH: EVQLQQSGPVLVKPGASVKMSCKASGYPFNDYFLGWVKQSHGKSLEWIGSINPDNDYTMSNQKFKGKATLTVDKSSSTAYMELNSLTSEDSAVYYCARYDYDWAWFAHWGQGTLVTVSA VL: DIVMTQSPSSLAMSVGQKVTMSCKSSQSLLSSYNQKNYLAWYQRKPGQSPKLLVYFASQRATGVPDRFIGSGSGSDFTLTISSVQAEDLADYFCQQHTRLPITFGAGTKLELKR
### Response 5.84

### Prompt How about murine derived IL-19 Ab 2 (M_2) (antibody, mouse IgG1, kappa, V domains shown) VH: LVQLQQSDAELVKPGASLKISCKVSGYTFTDHALHWMKQRPEQGLEWIGYIYPRDGSTKYNEKFKGKATLTADRSSSTAYMELNSLTSEDSAVYFCARGWDFAMDYWGQGTSVTVSS VL: DIVLTQSPESLAVSLGQRATISCRASESVDNYGISFIHWYQQKPGQPPKLLIYRASNLKSGIPARFSGRGSRTDFTLTINPVETDDVATYYCQQINKDPLTFGAGTKLELKR ?
### Response 4.80
